Tested on: OVCAR-5 ovarian
assay: NCI-60 one-dose screen, 48 h
testConditions: 10 µM unless noted
About 83,000 compounds went through this panel and 20% of them were active in at least one assay; those are over-represented in the sample as a whole. Activity calls are given as the source filed them. Rule for the calls: active = growth percent below 10; inactive = the rest.
# valid calls are active, inactive; nothing else

Per the records of this test, what outcome belongs to N#Cc1c(-c2ccc(F)cc2)nc(N/N=C/c2cccc(O)c2)nc1N1CCOCC1 ? inactive

I'd appreciate the recorded outcome for CN1C(=O)c2cc(Cl)nc3c(NC(=O)c4cccc(Cl)c4)c(Cl)c(NC(=O)c4cccc(Cl)c4)c1c23 from this test. inactive

Given O=c1[nH]c(-c2cccc(F)c2)cc2cc(F)ccc12 , state the outcome it received in this test. inactive

Entry CCN(CC)CC#CCOC(=O)[C@]1(C)CCC[C@]2(C)[C@H]3C[C@H]4C(C(C)C)=C[C@]3(CC[C@H]21)[C@@H]1C(=O)CCC(=O)[C@@H]14 : call = ? inactive

What classification did Cc1[nH]c2ncnc(Oc3ccc(NC(=O)Nc4ccc(Cl)c(C(F)(F)F)c4)cc3)c2c1C end up with in this test? inactive

Could you check what this test reported for CCCCc1n(Cc2ccc3ccccc3c2)c2ccccc2[n+]1Cc1ccc2ccccc2c1 ? active

Hello, I am checking results. What call was entered for CC1(c2ccccc2Cl)NC(=O)NC1=O (stereo not drawn) ? inactive

For this compound, state the assay outcome: CC(C)Cc1cc(CNC(=O)C2[C@H]3CN(C(=O)c4ccccc4)C[C@@H]23)nn1-c1ccccc1 (stereo partly drawn) inactive

For this compound, state the assay outcome: Cc1nc(C)c(C)nc1C inactive

Tell me the assay call for Nc1ccc(C(=O)Nc2cccc(C(=O)Nc3ccc4c(O)c(N=Nc5ccc(N=Nc6ccc(S(=O)(=O)O)cc6)cc5)c(S(=O)(=O)O)cc4c3)c2)cc1 please. inactive

Query: recorded result category for Cc1cccc2nc3c(n12)C(=O)C(=O)c1ccccc1-3 in this test inactive

How did this test come out for O=c1c2ccccc2n(CC(O)CN2CCCC2)c2c(Br)cccc12 (stereo not drawn) ? inactive

I'd appreciate the recorded outcome for COc1cc(C2=N/C(=C\c3cc4ccccc4nc3Oc3ccccc3)C(=O)N2C(=N)N)cc(OC)c1OC from this test. inactive

Call for entry N#Cc1ccc(C2C3=C(CCCC3=O)OC3=C2C(=O)c2ccccc2C3=O)cc1 (stereo not drawn) : inactive

Which outcome was entered for the compound CC(=O)[C@@H]1CC[C@]2(C(=O)O)CC[C@]3(C)[C@H](CC[C@@H]4[C@@]5(C)Cc6c([nH]c7ccccc67)C(C)(C)[C@@H]5CC[C@]43C)[C@@H]12 in this test? inactive

Which outcome was assigned to COc1ccc2c(c1)Oc1nc(N)c(C#N)c(N)c1C2Sc1ccc(SC)cc1 (stereo not drawn) in this test? inactive

Record lookup: outcome of this test for NS(=O)(=O)c1ccc(-n2ncc(NC(=O)Nc3ccc(S(=O)(=O)Nc4nccs4)cc3)c2-c2ccccc2)cc1 ? inactive

Hello, I am checking results. What call was entered for Cc1ccc(CS/C(=C\c2ccc([N+](=O)[O-])cc2)C(=O)c2ccc(F)cc2)cc1 ? inactive

----------
System: U251 CNS
assay: NCI-60 one-dose screen, 48 h (100 = growth as untreated, 0 = no growth, -100 = all killed)
testConditions: 10 µM unless noted
The panel holds about 83,000 compounds, 20% with a hit somewhere; the sample as a whole holds those more often.
reportedEndpoint: growth (%)
Respond numerically; units are % and should not be typed.

Please report growth with U251 CNS for item C#Cc1ccccc1NC(=O)c1sc2nc3c(cc2c1N)CCCCC3 . 99

GET growth | system: U251 CNS | item: N#Cc1ccc(Oc2ccc3ccc(=O)oc3c2)cc1 91.7

Retrieve growth on U251 CNS; query CCCNc1nc(C)[nH]c(=O)c1S 95

Given CCCCn1c(=O)c(/C=C/C(=O)/C=C/c2ccc(OC)cc2)cc2cc(Cl)ccc21 , report its growth on U251 CNS. -13.4

Write down measured growth (U251 CNS) for this compound. O=C1NN(c2ccccc2)C(c2ccc3c(c2)OCO3)N2CCC[C@@H]12 (stereo partly specified) 95.1

Recall the reported growth of O=C1Nc2ccc(Cl)cc2/C1=N/c1nc(-c2ccc(Cl)cc2)cs1 when tested on U251 CNS. -3.58

Give measured growth for CN1CCN(S(=O)(=O)O[C@@H]2C(=O)N(c3cc4c5ccccc5ccc4c4ccccc34)[C@H]2c2ccc(F)cn2)CC1 (U251 CNS). 78.6

State the measured growth (U251 CNS) of [2H]c1cc2c(c([2H])c1F)/C(=C/c1[nH]c(C)c(C(=O)NCCN(CC)CC)c1C)C(=O)N2 66.5

// fetch growth; item: COc1cc2nc3c(=O)n(-c4ccc(C#N)cc4)cnn3c(=O)c2cc1OC ; system: U251 CNS 102

Using U251 CNS as the test system, report measured growth of CC(=O)c1cc2c(N)c(C(=O)Nc3ccccn3)sc2nc1C . 77.7

Identify measured growth obtained with U251 CNS for CCOC(=O)c1c(C(F)(F)F)n([O-])c2ccc(Cl)cc2[n+]1=O . -87.7

Please tell me the measured growth for Cn1nc(C(F)(F)F)c(-c2cc(C(F)(F)F)cc(C(F)(F)F)c2)c1-c1ccc(OCc2ccc(Cl)cc2)cc1O ; system: U251 CNS. 6.17

Print U251 CNS growth for O=C(Nc1ccc2ncnc(Nc3ccc(F)c(Cl)c3)c2c1)c1ccccc1 . 42.8

Provide growth, tested on U251 CNS, for Oc1c(CCl)cc(Cl)cc1Cc1cc(Cl)cc(Cc2cc(Cl)cc(CCl)c2O)c1O . 31.7

Look up and report growth, with U251 CNS as system, for Nn1c(SCC(=O)Nc2ccc(Cl)cc2)nnc1-c1cc(F)c(Cl)cc1Cl 94.4

For U251 CNS, give growth of the listed compound: C=C1C(=O)O[C@H]2[C@H]1CC/C(COC(=O)c1cccnc1)=C\CC[C@@]1(C)O[C@@H]21 88.5

State, for U251 CNS, measured growth of the compound listed here: NC(=N\N=C\c1ccccc1O)/C(N)=N/N=C/c1ccccc1O 82.7

Look up U251 CNS data: growth of Cc1cc(O)cc(O)c1N=NC1=NCCS1 , then report it. 105

Specify the recorded growth for CCCCn1c(=O)c(/C=C/C(=O)/C=C/c2cc3ccccc3n(CCCC)c2=O)cc2ccccc21 , system: U251 CNS. -48.3

Write down the reported growth (system: U251 CNS) of CC(=O)Nc1ccc2c(c1)Cc1cc(F)ccc1-2 95.5

Quote U251 CNS growth for entry Nc1c(C(=O)Nc2cccc3ccccc23)sc2nc3c(cc12)CCCCC3 . 16.8

Print U251 CNS growth for COc1ccc(C(=O)c2cc(OC)c(OC)c(OC)c2)cc1OC(=O)C(Cl)(Cl)Cl . 5.44

Print U251 CNS growth for Cc1ccc(C(=O)/C(=C/c2ccc([N+](=O)[O-])cc2)S(=O)Cc2ccccc2)cc1 (stereo unspecified) . 13.4

Please indicate recorded growth of C=C1C(=O)O[C@H]2[C@H]1CC/C(COC(=O)c1c[nH]c3ccccc13)=C\CC[C@@]1(C)O[C@@H]21 measured with U251 CNS. -81.2

Name the value of growth reported for COCCOC(=O)COc1ccc(OC)cc1 when tested on U251 CNS. 102

Enter recorded growth with U251 CNS for COc1ccc(C2C(c3ccccc3)C(=O)N2c2cc(OC)c(OC)c(OC)c2)cc1I (stereo unspecified) here. 15.4

Check U251 CNS data and give growth for COc1ccc2c(c1)OC13Oc4cc(OC)ccc4C=C1CCCCC3=C2 . 89.7

Consider the compound CCC[S@@](=O)c1ccc2nc(NC(=O)OC)[nH]c2c1 tested on U251 CNS; state its growth. 82.2

Write down measured growth (U251 CNS) for this compound. COc1cccc2c1-c1ccccc1C2=O 17.8

Tell me growth of COc1cccc(NC(=O)Nc2ccc(Nc3ncnc4[nH]c(C)c(C)c34)cc2)c1 when tested on U251 CNS. 90.3

Write down the reported growth (system: U251 CNS) of O=C1Nc2ccc(Br)cc2/C1=N\N=C/c1cn(Cc2ccccc2)c2ccccc12 94.6

Fill: growth (U251 CNS) for this compound COc1cc(C2=NN(C=O)C(c3cccc(Nc4ccnc5cc(C(F)(F)F)ccc45)c3)C2)cc(OC)c1OC (stereo unspecified) 55.8

Check U251 CNS data and give growth for COc1cc(C(=O)N2CCN(c3ccccc3OC)CC2)c(NC(=O)c2cnccn2)cc1OCc1ccccc1 . 83.2

Report growth under test system U251 CNS for Fc1ccc(N/N=C/c2ccc(-n3cccn3)cc2)cc1 . 103

Answer briefly: growth recorded on U251 CNS for Nc1c(C(=O)Nc2cccc3ccccc23)sc2nc3c(cc12)COCC3 30

// fetch growth for C#CCN1C(=O)c2ccccc2N(CC#C)C12CCN(Cc1cn(CC(=O)Nc3ccccc3C(N)=O)nn1)CC2 ; system: U251 CNS 97.2

Fill in: growth on U251 CNS, entry Cc1cnc(SCc2ccc(Cl)cc2)[nH]c1=S 96.3

Please tell me the measured growth for O=C1c2ccccc2C(=O)c2c1oc1c2c(=O)[nH]c2ccccc21 ; system: U251 CNS. 79

Name the value of growth reported for CCC1S/C(=N\N=C(/C)c2ccc[nH]2)N(c2ccccc2)C1=O (stereo unspecified) when tested on U251 CNS. 108

Give the observed growth of CCOC(=O)/C=C1\SC(=Nc2ccc(C#N)cc2)N(CCN2C(=O)/C(=C/C(=O)OCC)SC2=Nc2ccc(C#N)cc2)C1=O for U251 CNS. -7.96

Look up and report growth, with U251 CNS as system, for CCOC(=O)c1c(C)nc2c(c1N)CC(=O)N2CCc1ccccc1 31.8
